# assay_system: DPP4 (Homo sapiens, UniProt P27487)
# Sequence (P27487 whole entry): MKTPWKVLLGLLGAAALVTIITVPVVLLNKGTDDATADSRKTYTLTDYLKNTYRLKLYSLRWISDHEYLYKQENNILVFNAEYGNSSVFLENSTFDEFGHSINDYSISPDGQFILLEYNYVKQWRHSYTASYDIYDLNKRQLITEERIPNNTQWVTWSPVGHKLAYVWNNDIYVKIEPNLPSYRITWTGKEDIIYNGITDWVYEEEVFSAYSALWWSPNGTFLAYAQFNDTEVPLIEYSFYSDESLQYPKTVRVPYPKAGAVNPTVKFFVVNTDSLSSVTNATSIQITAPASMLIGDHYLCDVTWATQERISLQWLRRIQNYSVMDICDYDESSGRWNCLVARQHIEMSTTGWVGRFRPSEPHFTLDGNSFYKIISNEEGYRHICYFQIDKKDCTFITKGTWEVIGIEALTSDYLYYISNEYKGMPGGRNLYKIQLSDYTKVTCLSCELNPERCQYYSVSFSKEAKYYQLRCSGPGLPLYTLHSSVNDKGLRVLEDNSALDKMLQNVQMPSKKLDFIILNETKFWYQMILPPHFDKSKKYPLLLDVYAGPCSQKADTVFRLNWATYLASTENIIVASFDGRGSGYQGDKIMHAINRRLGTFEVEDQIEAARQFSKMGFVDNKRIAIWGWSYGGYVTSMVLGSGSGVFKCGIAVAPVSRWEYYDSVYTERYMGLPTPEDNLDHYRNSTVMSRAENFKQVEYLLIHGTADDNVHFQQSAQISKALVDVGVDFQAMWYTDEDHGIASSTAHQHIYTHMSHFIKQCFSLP
# assay_method_text: DPP4 activity assay (DPP4 inhibitor screening assay kit, Cayman);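 note: fluorescence read at excitation 360 nm and emission 460 nm after the enzyme reaction ran 30 min at 37 °C in a 96-well plate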
# Type: biochemical
# Parameters: purchased Cayman Chemical, Ann Arbor, MI, USA
# assay_context: 10 µM; control mean 100.0; Figure 1A raw data
As shown below, each of these compounds has a reported DPP4 activity in library screen, Exp 2 value.
I'd appreciate a reply containing only the number, no unit.

Query: Assign DPP4 activity in library screen, Exp 2 to the following record: O=C1CCC[C@@H]2[C@H]3CCCN4CCC[C@@H](CN12)[C@@H]34 [(+)-Matrine]
Response: 98

Query: Determine its reported DPP4 activity in library screen, Exp 2: COc1ccc(CC2NCCc3cc(OC)c(OC)cc32)cc1OC.Cl (stereo not shown) [Tetrahydropapaverine HCl]
Response: 78

Query: Specify reported DPP4 activity in library screen, Exp 2 for the compound shown: CCCCCCCCCCCCCCCC(=O)OC[C@@]1(O)C[C@@]23CC[C@@H]4c5ccoc5CC[C@@]4(C)[C@@H]2CC[C@@H]1C3 [Cafestol palmitate]
Response: 108.3
